# target_entity: T1, human TGFβ2 (human, UniProt P61812 303-414)
# T1 construct: also called TGFβ2 homodimer
# T1 sequence: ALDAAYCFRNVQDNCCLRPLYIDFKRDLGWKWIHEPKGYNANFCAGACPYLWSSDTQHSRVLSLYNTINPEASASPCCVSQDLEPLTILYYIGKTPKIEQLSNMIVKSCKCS
# experimental_details: Biacore off-rate vs wt GC1008, 50 nM
result_type: kd var/kd wt
I'd appreciate a reply containing only the number, no unit.

State the recorded kd var/kd wt for this entry: D56S (antibody, V domains shown, GC1008 IgG4 variant) VH: QVQLVQSGAEVKKPGSSVKVSCKASGYTFSSNVISWVRQAPGQGLEWMGGVIPIVSIANYAQRFKGRVTITADESTSTTYMELSSLRSEDTAVYYCASTLGLVLDAMDYWGQGTLVTVSS VL: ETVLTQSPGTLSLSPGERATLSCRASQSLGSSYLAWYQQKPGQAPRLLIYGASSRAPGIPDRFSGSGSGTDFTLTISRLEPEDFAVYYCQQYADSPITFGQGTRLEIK
1.3

Reported kd var/kd wt, binder I54L (antibody, V domains shown, GC1008 IgG4 variant) VH: QVQLVQSGAEVKKPGSSVKVSCKASGYTFSSNVISWVRQAPGQGLEWMGGVIPLVDIANYAQRFKGRVTITADESTSTTYMELSSLRSEDTAVYYCASTLGLVLDAMDYWGQGTLVTVSS VL: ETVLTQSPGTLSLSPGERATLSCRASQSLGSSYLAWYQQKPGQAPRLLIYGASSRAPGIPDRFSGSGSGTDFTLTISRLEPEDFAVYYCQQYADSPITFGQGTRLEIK : ____
1.1

Which kd var/kd wt is listed for G101Y (antibody, V domains shown, GC1008 IgG4 variant) VH: QVQLVQSGAEVKKPGSSVKVSCKASGYTFSSNVISWVRQAPGQGLEWMGGVIPIVDIANYAQRFKGRVTITADESTSTTYMELSSLRSEDTAVYYCASTLYLVLDAMDYWGQGTLVTVSS VL: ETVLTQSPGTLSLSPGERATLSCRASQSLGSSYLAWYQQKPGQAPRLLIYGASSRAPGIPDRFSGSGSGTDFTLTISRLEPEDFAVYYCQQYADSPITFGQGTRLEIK ?
1.5

Param item = S31L (antibody, V domains shown, GC1008 IgG4 variant) VH: QVQLVQSGAEVKKPGSSVKVSCKASGYTFSLNVISWVRQAPGQGLEWMGGVIPIVDIANYAQRFKGRVTITADESTSTTYMELSSLRSEDTAVYYCASTLGLVLDAMDYWGQGTLVTVSS VL: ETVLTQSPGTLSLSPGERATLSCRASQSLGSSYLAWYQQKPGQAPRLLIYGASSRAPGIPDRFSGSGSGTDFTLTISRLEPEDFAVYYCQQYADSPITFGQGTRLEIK ; retrieve measured kd var/kd wt.
1.2

So what's the measured kd var/kd wt for this one? N32Y (antibody, V domains shown, GC1008 IgG4 variant) VH: QVQLVQSGAEVKKPGSSVKVSCKASGYTFSSYVISWVRQAPGQGLEWMGGVIPIVDIANYAQRFKGRVTITADESTSTTYMELSSLRSEDTAVYYCASTLGLVLDAMDYWGQGTLVTVSS VL: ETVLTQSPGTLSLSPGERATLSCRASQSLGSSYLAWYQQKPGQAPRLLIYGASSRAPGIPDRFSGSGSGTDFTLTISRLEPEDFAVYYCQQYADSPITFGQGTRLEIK
1.2
